So I've got a bunch of compounds here, and I need their TGI values.
Tested on: RPMI-8226 leukemia
protocol_text: NCI tumour cell line growth inhibition, 48 h

May I ask what TGI has been recorded for CC12CCC(C(=O)OC1=O)C2(C)C (stereo not drawn) ?
> 100 µM

May I ask what TGI has been recorded for `NC(=O)C(=CNc1nc(-c2ccc(Cl)c(Cl)c2)cs1)C(N)=O` ?
> 100 µM

May I ask what TGI has been recorded for `CCCCCCCCCc1cc(=O)c2c(O)cccc2o1` ?
> 100 µM

---

So I've got a bunch of compounds here, and I need their GI50 values.
Tested on: SN12C renal
protocol_text: NCI tumour cell line growth inhibition, 48 h

May I ask what GI50 has been recorded for CCOC(=O)C1=C(C)N(N)C(=S)NC1c1ccc(C)cc1 (centres undefined) ?
> 100 µM

May I ask what GI50 has been recorded for `Fc1ccc(Nc2cc(-n3nnc4ccccc43)nc3ccccc23)cc1` ?
30 µM

May I ask what GI50 has been recorded for `CN(C)Cc1c[nH]c2c1C(=O)c1c(c(O)c3ccccc3c1O)C2=O` ?
5.62 µM

May I ask what GI50 has been recorded for `Cc1[nH][nH]c(=O)c1C=Nc1ccc(-c2nc3ccccc3[nH]2)cc1` ?
36.7 µM

May I ask what GI50 has been recorded for `CC(=O)O[C@@H]1C[C@]2(C(C)C)O[C@@]1(C)[C@@H]1CCC(C)=C1[C@@H]2OC(=O)/C=C/c1ccccc1` ?
10.4 µM

May I ask what GI50 has been recorded for `COc1cc2cn3c4ccc(O)cc4[nH]c(=O)c3c2cc1OC` ?
0.0435 µM

May I ask what GI50 has been recorded for `O=C1/C(=C\c2cccn2Cc2ccccc2)c2ccccc2N1c1c(Cl)cccc1Cl` ?
> 100 µM

May I ask what GI50 has been recorded for COc1ccc(C2C(C#N)=C(N)OC3=C2COc2ccc(F)cc23)cc1OC (centres undefined) ?
20.8 µM

May I ask what GI50 has been recorded for Nc1nc(Br)nc2c1ncn2C1CC(O)C(CO)O1 (centres undefined) ?
0.744 µM
